# SYSTEM UNDER TEST: JAK1 enzyme (Homo sapiens (Human))
# Sequence (P23458 whole entry): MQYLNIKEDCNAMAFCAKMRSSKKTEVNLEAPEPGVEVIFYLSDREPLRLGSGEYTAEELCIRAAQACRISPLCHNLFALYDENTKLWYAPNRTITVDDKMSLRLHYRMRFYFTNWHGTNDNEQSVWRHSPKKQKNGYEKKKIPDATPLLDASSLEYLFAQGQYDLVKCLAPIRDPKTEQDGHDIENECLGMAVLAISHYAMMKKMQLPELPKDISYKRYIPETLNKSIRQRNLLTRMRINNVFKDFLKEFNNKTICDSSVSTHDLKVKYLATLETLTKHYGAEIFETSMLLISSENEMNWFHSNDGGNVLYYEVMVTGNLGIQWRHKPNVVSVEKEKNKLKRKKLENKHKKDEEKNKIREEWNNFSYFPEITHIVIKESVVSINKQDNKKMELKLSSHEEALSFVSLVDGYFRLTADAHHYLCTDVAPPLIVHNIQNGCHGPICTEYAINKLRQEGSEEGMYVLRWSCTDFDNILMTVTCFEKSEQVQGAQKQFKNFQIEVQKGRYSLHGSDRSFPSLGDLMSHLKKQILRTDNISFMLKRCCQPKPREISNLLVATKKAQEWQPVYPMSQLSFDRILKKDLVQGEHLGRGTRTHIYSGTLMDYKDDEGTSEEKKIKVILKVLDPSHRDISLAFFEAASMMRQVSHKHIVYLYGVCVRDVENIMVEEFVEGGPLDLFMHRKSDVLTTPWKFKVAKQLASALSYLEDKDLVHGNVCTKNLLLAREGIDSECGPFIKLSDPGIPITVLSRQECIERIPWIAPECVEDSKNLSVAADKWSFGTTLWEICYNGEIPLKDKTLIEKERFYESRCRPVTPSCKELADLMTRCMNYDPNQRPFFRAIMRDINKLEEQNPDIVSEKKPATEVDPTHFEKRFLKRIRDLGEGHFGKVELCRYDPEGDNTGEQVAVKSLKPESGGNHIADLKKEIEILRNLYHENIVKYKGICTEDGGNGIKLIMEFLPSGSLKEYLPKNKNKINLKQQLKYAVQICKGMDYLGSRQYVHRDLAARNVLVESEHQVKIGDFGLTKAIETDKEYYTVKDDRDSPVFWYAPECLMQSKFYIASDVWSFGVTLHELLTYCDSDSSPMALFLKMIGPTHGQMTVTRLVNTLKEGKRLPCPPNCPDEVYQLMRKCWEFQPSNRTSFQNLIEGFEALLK
# PROTOCOL: JAK1 isolated enzyme high ATP Caliper endpoint assay;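 also: enzyme at 10 nM preincubated with inhibitor 30 min, then kinase reaction 120 min at room temperature, peptide phosphorylation read by microfluidic mobility shift with fluorescence, inhibition relative to HPE and ZPE plate controls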
# MEASUREMENT CONDITIONS: 2.5 mM ATP, read-out: JAK-1 IC50
REPORTED PROPERTY: pIC50
// pIC50 is dimensionless: -log10 of concentration (M)

These solved cases illustrate the format of a correct answer.
CCc1cc(O)c(F)cc1-c1ccc2c(-c3nc4c([nH]3)CCN(Cc3ccnc(C#N)c3)C4)n[nH]c2c1; 8.23
CCc1cc(O)c(F)cc1-c1ccc2c(-c3nc4c([nH]3)CCN(C(=O)c3ccc(F)cc3)CC4)n[nH]c2c1; 8.35
CCc1cc(O)c(F)cc1-c1ccc2c(-c3nc4c([nH]3)CCN(Cc3ccc(N5CCCCC5)nc3)C4)n[nH]c2c1; 8.40
CCc1cc(O)c(F)cc1-c1ccc2c(-c3nc4c([nH]3)CCN(Cc3cccc(O)c3)C4)n[nH]c2c1; 8.59
CCc1cc(O)c(F)cc1-c1ccc2c(-c3nc4c([nH]3)CCN(C(=O)c3ccsn3)CC4)n[nH]c2c1; 8.60

Prompt: Identify the reported pIC50 for the following entry. `CCc1cc(O)c(F)cc1-c1ccc2c(-c3nc4c([nH]3)CCN(C(=O)c3ccc(C#N)nc3)C4)n[nH]c2c1`
Response: 9.15

Prompt: Report measured pIC50; entry is `CCc1cc(O)c(F)cc1-c1ccc2c(-c3nc4c([nH]3)CCN(Cc3ccc(Oc5ccccc5)nc3)C4)n[nH]c2c1`
Response: 8.21
